Entry source: ChEMBL document CHEMBL6103592

- Tested on: Mycoplasma
- Protocol notes: Antibacterial activity against Mycoplasma F3 assessed as inhibition of visible bacterial growth incubated for 24 hrs by CLSI based broth microdilution method
- Format: functional
Property: MIC
A bare number is not enough; add the unit after it.

Reference set (5 entries):
C=C[C@]1(C)C[C@@H](OC(=O)CSc2nc(OC(=O)c3cccs3)cs2)[C@]2(C)[C@H](C)CC[C@]3(CCC(=O)[C@H]32)[C@@H](C)[C@@H]1O ... 0.25 µg/mL
C=C[C@]1(C)C[C@@H](OC(=O)CSC2=NC(=O)CS2)[C@]2(C)[C@H](C)CC[C@]3(CCC(=O)[C@H]32)[C@@H](C)[C@@H]1O ... 0.5 µg/mL
C=C[C@]1(C)C[C@@H](OC(=O)CSc2nc(OC(=O)C3CC3)cs2)[C@]2(C)[C@H](C)CC[C@]3(CCC(=O)[C@H]32)[C@@H](C)[C@@H]1O ... 0.25 µg/mL
C=C[C@]1(C)C[C@@H](OC(=O)CSc2nc(OC(=O)CC(C)(C)C)cs2)[C@]2(C)[C@H](C)CC[C@]3(CCC(=O)[C@H]32)[C@@H](C)[C@@H]1O ... 0.25 µg/mL
CCC[C@@H]1C[C@@H](C(=O)N[C@@H]([C@H]2O[C@H](SC)[C@H](O)[C@@H](O)[C@H]2O)[C@H](C)Cl)N(C)C1 ... 1 µg/mL

Please examine the following record next.
Quick one: MIC of `C=C[C@]1(C)C[C@@H](OC(=O)CSc2nc(OC(=O)c3c(Cl)cc(Cl)cc3Cl)cs2)[C@]2(C)[C@H](C)CC[C@]3(CCC(=O)[C@H]32)[C@@H](C)[C@@H]1O` ?
1 µg/mL
